systemName: Protein kinase C zeta type (Homo sapiens)
Sequence (Q05513 whole entry): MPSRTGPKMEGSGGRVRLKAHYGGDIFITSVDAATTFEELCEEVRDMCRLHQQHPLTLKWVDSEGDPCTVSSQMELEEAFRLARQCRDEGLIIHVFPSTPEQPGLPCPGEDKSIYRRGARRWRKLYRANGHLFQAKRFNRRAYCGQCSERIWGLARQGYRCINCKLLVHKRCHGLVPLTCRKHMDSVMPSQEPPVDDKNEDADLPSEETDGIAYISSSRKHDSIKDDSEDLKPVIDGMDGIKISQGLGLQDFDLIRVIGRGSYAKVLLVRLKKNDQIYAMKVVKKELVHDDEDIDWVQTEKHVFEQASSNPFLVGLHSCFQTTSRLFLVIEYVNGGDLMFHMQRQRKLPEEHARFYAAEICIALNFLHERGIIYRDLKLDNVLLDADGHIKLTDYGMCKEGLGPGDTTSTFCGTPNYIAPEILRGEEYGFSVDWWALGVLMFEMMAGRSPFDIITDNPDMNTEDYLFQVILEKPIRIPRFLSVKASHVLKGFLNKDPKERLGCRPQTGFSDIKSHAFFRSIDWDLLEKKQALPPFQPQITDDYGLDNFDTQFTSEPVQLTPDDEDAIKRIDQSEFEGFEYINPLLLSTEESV
assayNotes: Inhibition of recombinant full-length human aPKCzeta using CREBtide as substrate incubated for 3 hrs in presence of ATP by Kinase Glo luminescent assay
Rule: IC50 below 1000 nM gives true. Equal to or above 1000 nM gives false.

Query :: Would you kindly verify if IC50 of `NCCN1CCN(c2nc(-c3ccncc3)nc3sc4c(c23)CCCC4)CC1` is strictly less than 1000 nM?
Result :: true

Query :: Would you kindly verify if IC50 of `NCC1CCN(c2nc(-c3ccncc3)nc3sc4c(c23)CCCC4)CC1` is strictly less than 1000 nM?
Result :: true

Query :: Would you kindly verify if IC50 of `OC1CCN(c2nc(-c3ccncc3)nc3sc4c(c23)CCCC4)CC1` is strictly less than 1000 nM?
Result :: false

Query :: Would you kindly verify if IC50 of `c1cc(-c2cc(N3CCNCC3)c3c4c(sc3n2)CCCC4)ccn1` is strictly less than 1000 nM?
Result :: false

Query :: Would you kindly verify if IC50 of `c1cc(-c2nc(NCCN3CCNCC3)c3c4c(sc3n2)CCCC4)ccn1` is strictly less than 1000 nM?
Result :: false

Source listed as ChEMBL document CHEMBL4622847.
